Assay: in vitro
Conditions: mouse
measurementLabel: viability at 72 h, 0.05 µM (%)
Provide only the numeric value, understood in %.

Measured viability at 72 h, 0.05 µM of COc1cc2ncnc(Nc3ccc(F)c(Cl)c3)c2cc1OCCCN1CCOCC1 : 80.9

Measured viability at 72 h, 0.05 µM of COc1cc2nccc(Oc3ccc(NC(=O)C4(C(=O)Nc5ccc(F)cc5)CC4)cc3)c2cc1OC [Cabozantinib] : 99.3

Measured viability at 72 h, 0.05 µM of C[C@]1(O)C[C@@H](c2nc(-c3ccc4ccc(-c5ccccc5)nc4c3)c3c(N)nccn32)C1 : 105

Measured viability at 72 h, 0.05 µM of Cc1nc(Nc2ncc(C(=O)Nc3c(C)cccc3Cl)s2)cc(N2CCN(CCO)CC2)n1 : 49.6

Measured viability at 72 h, 0.05 µM of Cc1ccc(NC(=O)c2ccc(CN3CCN(C)CC3)cc2)cc1Nc1nccc(-c2cccnc2)n1 : 81.6

---

Experiment: Ba/F3 cell viability, CellTiter-Glo
Conditions: mouse, parental Ba/F3 cells (+IL-3)
With a cut-off of 80%, any viability at 72 h, 0.05 µM strictly below it is called condition met; any viability at 72 h, 0.05 µM meeting it or above is called condition not met.

Exam item: I wonder whether COc1cc2c(Nc3ccc(Br)cc3F)ncnc2cc1OCC1CCN(C)CC1 has viability at 72 h, 0.05 µM below 80%. Can you tell?
Marked response: condition not met

Exam item: I wonder whether CCc1cc2c(cc1N1CCC(N3CCOCC3)CC1)C(C)(C)c1[nH]c3cc(C#N)ccc3c1C2=O has viability at 72 h, 0.05 µM below 80%. Can you tell?
Marked response: condition not met

Exam item: I wonder whether C[C@@H](Oc1cc(-c2cnn(C3CCNCC3)c2)cnc1N)c1c(Cl)ccc(F)c1Cl has viability at 72 h, 0.05 µM below 80%. Can you tell?
Marked response: condition not met

Exam item: I wonder whether C[C@H]1Oc2cc(cnc2N)-c2c(nn(C)c2C#N)CN(C)C(=O)c2ccc(F)cc21 has viability at 72 h, 0.05 µM below 80%. Can you tell?
Marked response: condition not met

Exam item: I wonder whether Cc1ccc(C(=O)Nc2ccc(CN3CCN(C)CC3)c(C(F)(F)F)c2)cc1C#Cc1cnc2cccnn12 has viability at 72 h, 0.05 µM below 80%. Can you tell?
Marked response: condition met

Exam item: I wonder whether Cc1cc(Nc2ncc(Cl)c(Nc3ccccc3S(=O)(=O)C(C)C)n2)c(OC(C)C)cc1C1CCNCC1 has viability at 72 h, 0.05 µM below 80%. Can you tell?
Marked response: condition met

Exam item: I wonder whether CCc1nc(C(N)=O)c(Nc2ccc(N3CCC(N4CCN(C)CC4)CC3)c(OC)c2)nc1NC1CCOCC1 has viability at 72 h, 0.05 µM below 80%. Can you tell?
Marked response: condition not met

---

Please respond with reported viability rate of cells for every item in the list.
Target: EML4-ALK I1171N + L1198H (Homo sapiens, UniProt Q9UM73, I1171N/L1198H)
Test: Ba/F3 cell viability, CellTiter-Glo
Settings: mouse, 72 h, 0.05 µM
Provide only the numeric value, understood in %.

Measured viability rate of cells of CN1CCN(c2ccc(C(=O)Nc3n[nH]c4ccc(Cc5cc(F)cc(F)c5)cc34)c(NC3CCOCC3)c2)CC1 [Entrectinib] : 80.3

Measured viability rate of cells of COc1cc(N2CCC(N3CCN(C)CC3)CC2)ccc1Nc1ncc(Cl)c(Nc2ccccc2P(C)(C)=O)n1 [Brigatinib] : 51

Measured viability rate of cells of COc1cc2nccc(Oc3ccc(NC(=O)C4(C(=O)Nc5ccc(F)cc5)CC4)cc3)c2cc1OC [Cabozantinib] : 86.7

Measured viability rate of cells of C=CC(=O)Nc1cc(Nc2nccc(-c3cn(C)c4ccccc34)n2)c(OC)cc1N(C)CCN(C)C [Osimertinib] : 87.2

Measured viability rate of cells of Cc1nc(Nc2ncc(C(=O)Nc3c(C)cccc3Cl)s2)cc(N2CCN(CCO)CC2)n1 [Dasatinib] : 73

Measured viability rate of cells of Cc1cc(Nc2ncc(Cl)c(Nc3ccccc3S(=O)(=O)C(C)C)n2)c(OC(C)C)cc1C1CCNCC1 [Ceritinib] : 75.4

Measured viability rate of cells of COc1cc2nccc(Oc3ccc(NC(=O)NC4CC4)c(Cl)c3)c2cc1C(N)=O [Lenvatinib] : 89.9

Measured viability rate of cells of Cc1ccc(NC(=O)c2ccc(CN3CCN(C)CC3)cc2)cc1Nc1nccc(-c2cccnc2)n1 [Imatinib] : 87.8

Measured viability rate of cells of COc1cc2ncnc(Nc3ccc(F)c(Cl)c3)c2cc1OCCCN1CCOCC1 [Gefitinib] : 74.1

Measured viability rate of cells of C[C@]1(O)C[C@@H](c2nc(-c3ccc4ccc(-c5ccccc5)nc4c3)c3c(N)nccn32)C1 [OSI906] : 86.8

---

Assay: Ba/F3 cell viability, CellTiter-Glo
Conditions: mouse
measurementLabel: viability at 72 h, 0.05 µM (%)
Provide only the numeric value, understood in %.

Measured viability at 72 h, 0.05 µM of C#Cc1cccc(Nc2ncnc3cc(OCCOC)c(OCCOC)cc23)c1 [Erlotinib] : 78.1

Measured viability at 72 h, 0.05 µM of C=CC(=O)Nc1cc(Nc2nccc(-c3cn(C)c4ccccc34)n2)c(OC)cc1N(C)CCN(C)C [Osimertinib] : 91.1

---

Target: EML4-ALK I1171N + L1198H (Homo sapiens, UniProt Q9UM73, I1171N/L1198H)
Assay: Ba/F3 cell viability, CellTiter-Glo
Settings: 50 nM, 72 hours, DMSO as 100, BaF3 EML4-ALK I1171N + L1198H
measurementLabel: viability rate of cells

Measured viability rate of cells of C#Cc1cccc(Nc2ncnc3cc(OCCOC)c(OCCOC)cc23)c1 [Erlotinib] : 87.5%

Measured viability rate of cells of Nc1nc(Nc2ccc3c(c2)CCC(N2CCCC2)CC3)nn1-c1cc2c(nn1)-c1ccccc1CCC2 (stereo not shown) [R428] : 85%

Measured viability rate of cells of CCc1nc(C(N)=O)c(Nc2ccc(N3CCC(N4CCN(C)CC4)CC3)c(OC)c2)nc1NC1CCOCC1 [Gilteritinib] : 2.3%

Measured viability rate of cells of Cc1ccc(C(=O)Nc2ccc(CN3CCN(C)CC3)c(C(F)(F)F)c2)cc1C#Cc1cnc2cccnn12 [Ponatinib] : 77.3%

Measured viability rate of cells of C=CCNC1=C2C[C@@H](C)C[C@H](OC)[C@H](O)[C@@H](C)/C=C(\C)[C@H](OC(N)=O)[C@@H](OC)/C=C\C=C(/C)C(=O)NC(=CC1=O)C2=O [17-AAG] : 82.5%

Measured viability rate of cells of COc1cc2c(Oc3ccc(NC(=O)C4(C(=O)Nc5ccc(F)cc5)CC4)cc3F)ccnc2cc1OCCCN1CCOCC1 [Foretinib] : 83.3%

Measured viability rate of cells of CN(C)C/C=C/C(=O)Nc1cc2c(Nc3ccc(F)c(Cl)c3)ncnc2cc1O[C@H]1CCOC1 [Afatinib] : 83.7%

---

Target: EML4-ALK I1171N + F1174I (Homo sapiens, UniProt Q9UM73, F1174I/I1171N)
Test: Ba/F3 cell viability, CellTiter-Glo
Conditions: 50 nM, 72 hours, DMSO as 100, BaF3 EML4-ALK I1171N + F1174I; in %
measurementLabel: viability rate of cells
Give the figure by itself; no unit, no explanation.

Measured viability rate of cells of Cc1ccc(C(=O)Nc2ccc(CN3CCN(C)CC3)c(C(F)(F)F)c2)cc1C#Cc1cnc2cccnn12 : 122.1

Measured viability rate of cells of C#Cc1cccc(Nc2ncnc3cc(OCCOC)c(OCCOC)cc23)c1 : 114.1

Measured viability rate of cells of CN(C)C/C=C/C(=O)Nc1cc2c(Nc3ccc(F)c(Cl)c3)ncnc2cc1O[C@H]1CCOC1 : 112.1

Measured viability rate of cells of COc1cc2c(Oc3ccc(NC(=O)C4(C(=O)Nc5ccc(F)cc5)CC4)cc3F)ccnc2cc1OCCCN1CCOCC1 : 100.2

Measured viability rate of cells of Nc1nc(Nc2ccc3c(c2)CCC(N2CCCC2)CC3)nn1-c1cc2c(nn1)-c1ccccc1CCC2 (stereo not shown) : 142.5

Measured viability rate of cells of CCc1nc(C(N)=O)c(Nc2ccc(N3CCC(N4CCN(C)CC4)CC3)c(OC)c2)nc1NC1CCOCC1 : 11.4

Measured viability rate of cells of C=CCNC1=C2C[C@@H](C)C[C@H](OC)[C@H](O)[C@@H](C)/C=C(\C)[C@H](OC(N)=O)[C@@H](OC)/C=C\C=C(/C)C(=O)NC(=CC1=O)C2=O : 92.6

---

Assay: Ba/F3 cell viability, CellTiter-Glo
Settings: mouse, parental Ba/F3 cells (+IL-3)
Please respond with reported viability at 72 h, 0.05 µM for every item in the list.
Provide only the numeric value, understood in %.

Measured viability at 72 h, 0.05 µM of COc1cc2c(Oc3ccc(NC(=O)C4(C(=O)Nc5ccc(F)cc5)CC4)cc3F)ccnc2cc1OCCCN1CCOCC1 : 77.9

Measured viability at 72 h, 0.05 µM of CN(C)C/C=C/C(=O)Nc1cc2c(Nc3ccc(F)c(Cl)c3)ncnc2cc1O[C@H]1CCOC1 : 81.5

Measured viability at 72 h, 0.05 µM of COc1cc(N2CCC(N3CCN(C)CC3)CC2)ccc1Nc1ncc(Cl)c(Nc2ccccc2P(C)(C)=O)n1 : 81.1

Measured viability at 72 h, 0.05 µM of CN1CCN(c2ccc(C(=O)Nc3n[nH]c4ccc(Cc5cc(F)cc(F)c5)cc34)c(NC3CCOCC3)c2)CC1 : 78.4

Measured viability at 72 h, 0.05 µM of COc1cc2nccc(Oc3ccc(NC(=O)NC4CC4)c(Cl)c3)c2cc1C(N)=O : 81.6
